Target: UniProt O00187
Sequence (O00187 445-686): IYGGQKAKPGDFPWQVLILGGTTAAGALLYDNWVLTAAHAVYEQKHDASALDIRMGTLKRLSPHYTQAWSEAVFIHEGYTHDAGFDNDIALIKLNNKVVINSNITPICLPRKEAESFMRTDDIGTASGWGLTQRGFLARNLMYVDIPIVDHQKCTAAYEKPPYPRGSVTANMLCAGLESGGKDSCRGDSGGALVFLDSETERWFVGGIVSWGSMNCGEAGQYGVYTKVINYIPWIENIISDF
Experiment: biochemical
Format: biochemical
Conditions: selectivity for MASP-2 inhibition versus thrombin
Counter-ions that a name gives are not always drawn.
Reported Metric: MASP-2 vs. thrombin selectivity

# Compound, Reported Measurement
data = [
    ("COc1cccc([C@H]2CN[C@@H](C(=O)N[C@@H](C)C(=O)NCc3ccc(C(=N)N)cc3)C2)c1", "*** (≥25 to <100-fold)"),
    ("Cc1cccc([C@H]2CN[C@@H](C(=O)N[C@@H](C)C(=O)NCc3cc(Cl)ccc3O)C2)c1", "*** (≥25 to <100-fold)"),
    ("Cc1nc(N)ccc1CNC(=O)[C@H](C)NC(=O)[C@H]1C[C@H](Cc2ccccc2-c2ccc(Cl)s2)CN1 [compound 1410, Trifluoroacetate]", "*** (≥25 to <100-fold)"),
    ("Cc1cc(C[C@@H]2CN[C@@H](C(=O)N[C@@H](C)C(=O)NCc3cnc4c(c3)c(Cl)cn4C)C2)ccn1 [compound 1468, Trifluoroacetate]", "**** (≥100-fold)"),
    ("C[C@H](NC(=O)[C@@H](CCc1ccccc1)NCCc1cccc(OC(F)(F)F)c1)C(=O)NCc1ccc(C(=N)N)cc1 [compound 1352, Di-trifluoroacetate salt]", "*** (≥25 to <100-fold)"),
    ("Cc1nc(N)ccc1CNC(=O)[C@H](C)NC(=O)[C@H]1CN(c2cccc3ccccc23)CCN1 [compound 1309, Dihydrochloride]", "**** (≥100-fold)"),
    ("Cc1nc(N)ccc1CNC(=O)[C@H](C)NC(=O)[C@H]1C[C@H](Cc2cc3ccccc3s2)CN1 [compound 1458, Di-trifluoroacetate salt]", "**** (≥100-fold)"),
    ("C[C@H](NC(=O)[C@H]1C[C@H](Cc2ccc(-c3cccnc3)cc2)CN1)C(=O)NCc1cc(Cl)ccc1-n1cnnn1 [compound 1404, Hydrochloride]", "** (≥5.0 to <25-fold)"),
    ("CC[C@H](NC(=O)[C@H](N)CCc1ccccc1)C(=O)NCc1ccc(C(=N)N)cc1", "−− (<1.0-fold)"),
    ("C[C@H](NC(=O)[C@H](N)CCc1ccccc1)C(=O)NCc1cc(Cl)ccc1-n1cnnn1", "−− (<1.0-fold)"),
]

Give one value of MASP-2 vs. thrombin selectivity per listed compound.
1. C[C@H](NC(=O)[C@H]1C[C@H](c2ccccc2)CN1)C(=O)NCc1cc2ccncc2[nH]1 [compound 1495, Di-trifluoroacetate salt]
2. Cc1cccc([C@H]2CCN[C@@H](C(=O)N[C@@H](C)C(=O)NCc3ccc(C(=N)N)cc3)C2)c1

["** (≥5.0 to <25-fold)", "**** (≥100-fold)"]

---

Target: mMASP-2 (Mus musculus (Mouse), UniProt Q91WP0)
Sequence (Q91WP0 20-685): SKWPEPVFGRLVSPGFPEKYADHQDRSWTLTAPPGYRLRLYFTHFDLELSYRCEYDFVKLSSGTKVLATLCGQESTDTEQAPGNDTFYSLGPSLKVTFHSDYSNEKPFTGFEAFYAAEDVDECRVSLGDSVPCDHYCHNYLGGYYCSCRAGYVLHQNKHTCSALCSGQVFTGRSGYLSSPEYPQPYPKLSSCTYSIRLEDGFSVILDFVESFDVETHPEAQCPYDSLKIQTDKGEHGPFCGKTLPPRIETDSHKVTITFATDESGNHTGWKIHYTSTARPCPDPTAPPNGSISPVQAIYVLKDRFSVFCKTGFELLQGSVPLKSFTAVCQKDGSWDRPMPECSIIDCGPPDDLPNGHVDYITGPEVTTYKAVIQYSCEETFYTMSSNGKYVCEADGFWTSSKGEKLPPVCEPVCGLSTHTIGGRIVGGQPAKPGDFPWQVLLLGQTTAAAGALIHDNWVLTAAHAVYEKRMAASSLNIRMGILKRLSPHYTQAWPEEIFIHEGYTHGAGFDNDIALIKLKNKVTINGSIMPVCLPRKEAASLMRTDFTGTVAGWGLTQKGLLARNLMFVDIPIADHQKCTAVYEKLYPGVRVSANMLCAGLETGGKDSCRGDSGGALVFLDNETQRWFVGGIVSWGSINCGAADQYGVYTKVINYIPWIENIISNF
Assay: Enzymatic inhibition of mMASP-2
Assay type: biochemical
Details: read-out: mMASP-2 Ki
Counter-ions that a name gives are not always drawn.
Reported Metric: Ki

Give one value of Ki per listed compound.
1. C[C@H](NC(=O)[C@H](N)C1Cc2ccccc2C1)C(=O)NCc1ccc2nc(N)ccc2c1 [compound 1091]
2. Cc1nc(N)ccc1CNC(=O)[C@H](C)NC(=O)[C@H]1CN(c2cccc3ccccc23)CCN1 [compound 1309, Dihydrochloride]
3. C[C@H](NC(=O)[C@@H](CCc1ccccc1)NCc1ccccc1)C(=O)NCc1ccc(C(=N)N)cc1 [compound 1134]
4. C[C@H](NC(=O)[C@H]1C[C@H](c2ccccc2)CN1)C(=O)NCc1ccc2c(N)noc2c1 [compound 1390, Di-trifluoroacetate salt]
5. C[C@H](NC(=O)[C@H](N)CCc1ccccc1)C(=O)NCc1ccnc(N)c1 [compound 1296, Dihydrochloride]
6. Cc1nc(N)ccc1CNC(=O)[C@H](C)NC(=O)[C@H]1C[C@H](Cc2ccc(-c3ccccc3)cc2)CN1 [compound 1351, Dihydrochloride]

< 500 nM
< 500 nM
< 500 nM
> 25000 nM
> 25000 nM
< 500 nM

Give one value of Ki per listed compound.
1. Cc1nc(N)ccc1CNC(=O)[C@H](C)NC(=O)[C@@H]1C[C@H](Cc2ccccc2)CCN1 [compound 1354, Dihydrochloride]
2. Cc1cc(Cl)cc(CNC(=O)[C@H](C)NC(=O)[C@H]2C[C@H](Cc3ccccc3)CN2)c1O [compound 1307, Hydrochloride]
3. Cc1nc(N)ccc1CNC(=O)[C@H](C)NC(=O)[C@H]1C[C@H](Cc2ccc3ccccc3c2)CN1 [compound 1338, Dihydrochloride]

1. 500 to 2500 nM
2. < 500 nM
3. < 500 nM

Give one value of Ki per listed compound.
1. Cc1nc(N)ccc1CNC(=O)[C@H](C)NC(=O)[C@H]1C[C@H](Cc2ccc(Cl)cc2Cl)CN1 [compound 1443, Dihydrochloride]
2. C[C@H](NC(=O)[C@H](N)CCc1ccccc1)C(=O)NCc1ccc2nc(N)[nH]c2c1 (single isomer, unassigned) [compound 1040, Di-trifluoroacetate salt]
3. C[C@H](NC(=O)[C@H](N)CCc1ccccc1)C(=O)NCc1cccnc1N [compound 1346, Dihydrochloride]
4. C[C@H](NC(=O)[C@H]1C[C@@H](c2ccccc2)CCN1)C(=O)NCc1ccc(C(=N)N)cc1 [compound 1230]

1: < 500 nM; 2: < 500 nM; 3: > 25000 nM; 4: < 500 nM
